Recorded values, source patent US11154480B2.

- Assay Info: Benedict's Test for reducing sugars
- Assay type: physicochemical
- Conditions: 80° C., 15 min; 5% aqueous solution of test compound
Measured Property: Assessment of sugars using the Benedict's Test

Some solved entries appear below for comparison.
>>> result("O=C[C@H](O)[C@H](O)[C@H](O)CO")
"Positive"
>>> result("CO[C@H]1OC(CO)[C@H](O)[C@@H](O)[C@@H]1O (stereo partly drawn) [Methyl glucoside]")
"Negative"
>>> result("O=C[C@H](O)[C@@H](O)[C@H](O)CO")
"Positive"
>>> result("OC[C@H]1O[C@@](CO)(O[C@H]2O[C@H](CO)[C@@H](O)[C@H](O)[C@H]2O)[C@@H](O)[C@@H]1O")
"Negative"
>>> result("O=C(CO)[C@@H](O)[C@H](O)[C@H](O)CO")
"Positive"

In: Return reported Assessment of sugars using the Benedict's Test; argument: `O=C[C@@H](O)[C@H](O)[C@H](O)CO`
Out: Positive
